experimental.target: HIF-2α HIS TAG-PASB Domain (Homo sapiens)
Construct: 100 nM HIF-2α HIS TAG-PASB Domain
Sequence (Q99814 240-350 limits assumed): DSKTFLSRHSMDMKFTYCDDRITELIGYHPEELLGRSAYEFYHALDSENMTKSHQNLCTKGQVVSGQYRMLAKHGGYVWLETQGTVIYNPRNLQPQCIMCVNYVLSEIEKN
assay.info: HIF-2α Scintillation Proximity Assay (SPA)
Format: binding
run.conditions: SPA IC50, 150 nM Compound 211 probe, 100 nM HIF-2α HIS TAG-PASB Domain
measure.name: log10(IC50) (log10 of the value in nM)

| compound | experimental.target | assay.result |
| --- | --- | --- |
| O=S1(=O)CCC(O)c2c1ccc(Oc1cc(F)cc(F)c1)c2C(F)F (centres unmarked) | HIF-2α HIS TAG-PASB Domain (Homo sapiens) | 3.61 |
| N#Cc1c(Oc2cc(F)cc(Cl)c2)ccc2c1C(O)C(F)(F)S2(=O)=O (centres unmarked) | HIF-2α HIS TAG-PASB Domain (Homo sapiens) | 1.65 |
| Cc1c(Oc2cc(F)cc(Cl)c2)ccc2c1C(O)C(F)(F)S2(=O)=O (centres unmarked) | HIF-2α HIS TAG-PASB Domain (Homo sapiens) | 1.18 |
| CC1(C)C(O)c2c(ccc(Oc3cc(F)cc(Cl)c3)c2Br)S1(=O)=O (centres unmarked) | HIF-2α HIS TAG-PASB Domain (Homo sapiens) | 4.34 |
| N#Cc1cc(F)cc(Oc2ccc3c(c2C(F)F)C(=O)C(F)(F)S3(=O)=O)c1 | HIF-2α HIS TAG-PASB Domain (Homo sapiens) | 3.38 |
| N#Cc1cncc(Oc2ccc3c(c2C(F)F)C(O)C(F)(F)S3(=O)=O)c1 (centres unmarked) | HIF-2α HIS TAG-PASB Domain (Homo sapiens) | 2.08 |
